- systemTested: BRM (Homo sapiens)
- Construct: Western Blot Screen of BRM Degradation in SW1573 Cells; endogenous in cells; host or cells: SW1573 cells
- test: BRM degradation (Dmax and DC50) in SW1573 cells, Western blot screen / In-Cell Western screen
- Format: cell-based
- experimentalContext: overnight (18-20 hours) treatment, read-out: Dmax (%)** (% degraded)
Please respond with reported Dmax for every item in the list.

# compound, systemTested, Dmax
rows = [
    ("CC(C)[C@@H](C(=O)N1C[C@H](O)C[C@H]1C(=O)N[C@@H](C)c1ccc(C#N)cc1)c1cc(N2CCC(CN3CCC(O[C@H]4C[C@H](Oc5cc(N6CC7CCC(C6)N7c6cc(-c7ccccc7O)nnc6N)ccn5)C4)CC3)CC2)no1", "BRM (Homo sapiens)", "> 75%"),
    ("Cc1ncsc1-c1ccc([C@H](C)NC(=O)[C@@H]2C[C@@H](O)CN2C(=O)[C@@H](c2cc(N3CCC(OC(=O)N4CCC(O[C@H]5C[C@H](Oc6cc(N7C8CCC7CN(c7cc(-c9ccccc9O)nnc7N)C8)ccn6)C5)CC4)CC3)no2)C(C)C)cc1", "BRM (Homo sapiens)", "> 75%"),
    ("Cc1ncsc1-c1ccc([C@H](C)NC(=O)[C@@H]2C[C@@H](O)CN2C(=O)[C@@H](c2cc(N3CCC(CN4CCC5(CC4)CC(N4CCO[C@@H](C#CC(C)n6cc(-c7cc(-c8ccccc8O)nnc7N)cn6)C4)C5)CC3)no2)C(C)C)cc1 (some centres unmarked)", "BRM (Homo sapiens)", "> 75%"),
]

Give Dmax for each of the items listed below.
1. Cc1ncsc1-c1ccc([C@H](C)NC(=O)[C@@H]2C[C@@H](O)CN2C(=O)[C@@H](c2cc(N3CCC(CN4CCC5(CC4)CC(N4CCC(C(=O)N6C7CCC6CN(c6cc(-c8ccccc8O)nnc6N)C7)CC4)C5)CC3)no2)C(C)C)cc1
2. Cc1ncsc1-c1ccc([C@H](C)NC(=O)[C@@H]2C[C@@H](O)CN2C(=O)[C@@H](c2cc(N3CCC(CN4CCC(O[C@H]5C[C@H](N6CCC(F)(CN7C8CCC7CN(c7cc(-c9ccccc9O)nnc7N)C8)CC6)C5)CC4)CC3)no2)C(C)C)cc1
3. Cc1ncsc1-c1ccc([C@H](C)NC(=O)[C@@H]2C[C@@H](O)CN2C(=O)C(c2cc(N3CCC(OC(=O)N4CCC(O[C@H]5C[C@H](Oc6cc(N7CCN(c8cc(-c9ccccc9O)nnc8N)CC7)ccn6)C5)CC4)CC3)no2)C(C)C)cc1 (some centres unmarked)

Outgoing:
1. > 75%
2. > 75%
3. > 75%

// each compound listed below needs its Dmax
1. Cc1ncsc1-c1ccc([C@H](C)NC(=O)[C@@H]2C[C@@H](O)CN2C(=O)[C@@H](c2cc(N3CCC(CN4CC[C@@H](OC(=O)N5CCN(c6cc(-c7ccccc7O)nnc6N)CC5)[C@@H](F)C4)CC3)no2)C(C)C)cc1
2. Cc1ncsc1-c1ccc([C@H](C)NC(=O)[C@@H]2C[C@@H](O)CN2C(=O)[C@@H](c2cc(N3C4CCC3CC(CN3CCC(O[C@H]5C[C@H](Oc6cc(N7C8CCC7CN(c7cc(-c9ccccc9O)nnc7N)C8)ccn6)C5)CC3)C4)no2)C(C)C)cc1 (some centres unmarked)

Outgoing:
> 75%
> 75%

----------
- systemTested: BRM (Homo sapiens)
- Construct: Western Blot Screen of BRM Degradation in SW1573 Cells; endogenous in cells; host or cells: SW1573 cells
- test: BRM degradation (Dmax and DC50) in SW1573 cells, Western blot screen / In-Cell Western screen
- Format: cell-based
- experimentalContext: overnight (18-20 hours) treatment
assayMetric: DC50

Provide each entry's DC50 from the list below.
1. Cc1ncsc1-c1ccc([C@H](C)NC(=O)[C@@H]2C[C@@H](O)CN2C(=O)[C@@H](c2cc(N3CCC(CN4CCC5(CC4)CC(n4cc(C#Cc6cc(-c7ccccc7O)nnc6N)cn4)C5)CC3)no2)C(C)C)cc1 [Compound 63]
2. Cc1ncsc1-c1ccc([C@H](C)NC(=O)[C@@H]2C[C@@H](O)CN2C(=O)[C@@H](c2cc(N3CCC(OC(=O)N4CCC(Oc5cc(N6C7CCC6CN(c6cc(-c8ccccc8O)nnc6N)C7)ccn5)CC4)CC3)no2)C(C)C)cc1 [Compound 128]
3. Cc1ncsc1-c1ccc([C@H](C)NC(=O)[C@@H]2C[C@@H](O)CN2C(=O)[C@@H](c2cc(N3CCC(CN4CCC(O[C@H]5C[C@H](N6CCO[C@H](CN7C8CCC7CN(c7cc(-c9ccccc9O)nnc7N)C8)C6)C5)CC4)CC3)no2)C(C)C)cc1 [Compound 23]
4. Cc1ncsc1-c1ccc([C@H](C)NC(=O)C2C[C@@H](O)CN2C(=O)[C@@H](c2cc(N3CCC(CN4CC[C@H](Oc5cc(N6C7CCC6CN(c6cc(-c8ccccc8O)nnc6N)C7)ccn5)C(F)(F)C4)CC3)no2)C(C)C)cc1 (stereo in doubt) [Compound 54]
5. CC(C)[C@@H](C(=O)N1C[C@H](O)C[C@H]1C(=O)N[C@@H](C)c1ccc(-c2ccnn2C)cc1)c1cc(N2CCC(OC3CCN(CC4CC(N5CCC([C@H](C)n6cc(C#Cc7cc(-c8ccccc8O)nnc7N)cn6)CC5)C4)CC3)CC2)no1 (some centres unmarked) [Compound 112]

Outgoing:
< 2.5 nM
< 2.5 nM
< 2.5 nM
2.5 to 10 nM
< 2.5 nM

----------
Hi there, I'd appreciate the recorded DC50 for every entry that follows.
- systemTested: BRM (Homo sapiens, UniProt P51531)
- Construct: Western Blot Screen of BRM Degradation in SW1573 Cells; endogenous in cells; host or cells: SW1573 cells
- Sequence (P51531 whole entry): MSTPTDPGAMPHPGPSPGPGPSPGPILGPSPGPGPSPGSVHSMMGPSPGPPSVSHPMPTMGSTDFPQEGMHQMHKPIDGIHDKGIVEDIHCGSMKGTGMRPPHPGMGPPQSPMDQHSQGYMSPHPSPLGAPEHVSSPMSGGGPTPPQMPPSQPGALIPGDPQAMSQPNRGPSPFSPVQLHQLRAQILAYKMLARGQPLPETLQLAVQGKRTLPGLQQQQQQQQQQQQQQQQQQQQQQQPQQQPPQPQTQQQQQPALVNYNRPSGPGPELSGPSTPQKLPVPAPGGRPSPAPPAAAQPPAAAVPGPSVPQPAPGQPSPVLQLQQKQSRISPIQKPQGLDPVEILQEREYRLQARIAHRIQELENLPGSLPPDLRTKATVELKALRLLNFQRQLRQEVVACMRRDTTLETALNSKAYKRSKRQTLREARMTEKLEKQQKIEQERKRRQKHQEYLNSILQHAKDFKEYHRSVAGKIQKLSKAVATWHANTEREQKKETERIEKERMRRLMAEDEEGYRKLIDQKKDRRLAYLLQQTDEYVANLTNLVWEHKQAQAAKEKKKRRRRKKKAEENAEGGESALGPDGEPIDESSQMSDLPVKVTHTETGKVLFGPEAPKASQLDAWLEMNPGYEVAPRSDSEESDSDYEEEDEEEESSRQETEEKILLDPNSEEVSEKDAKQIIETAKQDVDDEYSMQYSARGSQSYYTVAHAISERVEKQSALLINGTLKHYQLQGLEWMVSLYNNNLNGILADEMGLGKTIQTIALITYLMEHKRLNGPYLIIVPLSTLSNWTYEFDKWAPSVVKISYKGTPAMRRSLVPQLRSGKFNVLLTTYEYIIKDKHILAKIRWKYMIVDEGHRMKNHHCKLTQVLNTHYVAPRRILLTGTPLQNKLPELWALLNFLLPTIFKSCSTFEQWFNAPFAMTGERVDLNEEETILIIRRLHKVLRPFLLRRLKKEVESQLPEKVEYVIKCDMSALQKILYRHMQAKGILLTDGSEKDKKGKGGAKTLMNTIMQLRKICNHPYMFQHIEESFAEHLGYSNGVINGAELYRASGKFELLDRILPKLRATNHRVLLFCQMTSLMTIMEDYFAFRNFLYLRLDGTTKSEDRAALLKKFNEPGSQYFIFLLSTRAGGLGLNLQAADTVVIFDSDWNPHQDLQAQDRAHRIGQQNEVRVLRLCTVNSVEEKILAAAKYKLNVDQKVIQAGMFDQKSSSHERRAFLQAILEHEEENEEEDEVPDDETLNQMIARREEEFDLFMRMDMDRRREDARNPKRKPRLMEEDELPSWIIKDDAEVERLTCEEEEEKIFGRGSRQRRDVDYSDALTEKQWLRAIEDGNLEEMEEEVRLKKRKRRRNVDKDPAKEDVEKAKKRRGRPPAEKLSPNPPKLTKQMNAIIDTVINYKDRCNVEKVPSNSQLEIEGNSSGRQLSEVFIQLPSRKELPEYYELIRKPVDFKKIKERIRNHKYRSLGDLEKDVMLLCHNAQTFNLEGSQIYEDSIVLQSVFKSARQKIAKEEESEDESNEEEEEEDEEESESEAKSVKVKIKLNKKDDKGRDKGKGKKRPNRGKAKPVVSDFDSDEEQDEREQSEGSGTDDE
- test: BRM degradation (Dmax and DC50) in SW1573 cells, Western blot screen / In-Cell Western screen
- Type: cell-based
- experimentalContext: overnight (18-20 hours) treatment

Here's what some known entries look like.
# molecule, systemTested, assayMetric, assayResult
records = [
    ("Cc1ncsc1-c1ccc([C@H](C)NC(=O)[C@@H]2C[C@@H](O)CN2C(=O)[C@@H](c2cc(N3CCC(CN4CCC(OC(=O)N5CCN(c6cc(-c7ccccc7O)nnc6N)CC5)CC4)CC3)no2)C(C)C)cc1", "BRM (Homo sapiens, UniProt P51531)", "DC50", "< 2.5 nM"),
    ("Cc1ncsc1-c1ccc([C@H](C)NC(=O)[C@@H]2C[C@@H](O)CN2C(=O)[C@H](c2cc(N3CCC(OC(=O)N4CCC(Oc5cc(N6C7CCC6CN(c6cc(-c8ccccc8O)nnc6N)C7)ccn5)CC4)CC3)no2)C(C)C)cc1", "BRM (Homo sapiens, UniProt P51531)", "DC50", "≥ 30 nM"),
    ("CC(C)[C@@H](C(=O)N1C[C@H](O)C[C@H]1C(=O)N[C@@H](C)c1ccc(-c2ccnn2C)cc1)c1cc(N2CCC(CN3CCC(O[C@H]4C[C@H](N5CCC(C(C)n6ncc(C#Cc7cc(-c8ccccc8O)nnc7N)c6F)CC5)C4)CC3)CC2)no1 (stereo partly shown)", "BRM (Homo sapiens, UniProt P51531)", "DC50", "< 2.5 nM"),
    ("Cc1ncsc1-c1ccc([C@H](C)NC(=O)[C@@H]2C[C@@H](O)CN2C(=O)[C@@H](c2cc(N3CCC(CN4CCC5(CC4)CC(N4CCO[C@@H](C(=O)N6C7CCC6CN(c6cc(-c8ccccc8O)nnc6N)C7)C4)C5)CC3)no2)C(C)C)cc1", "BRM (Homo sapiens, UniProt P51531)", "DC50", "< 2.5 nM"),
    ("Cc1ncsc1-c1ccc([C@H](C)NC(=O)[C@@H]2C[C@@H](O)CN2C(=O)[C@@H](c2cc(N3CCC(CN4CC[C@@H](OC(=O)N5CCN(c6cc(-c7ccccc7O)nnc6N)CC5)[C@@H](F)C4)CC3)no2)C(C)C)cc1", "BRM (Homo sapiens, UniProt P51531)", "DC50", "< 2.5 nM"),
    ("CC(C)[C@H](C(=O)N1C[C@H](O)C[C@H]1C(=O)N[C@@H](C)c1ccc(C#N)cc1)c1cc(N2CCN(C(=O)N3CCC(O[C@H]4C[C@H](Oc5cc(N6C7CCC6CN(c6cc(-c8ccccc8O)nnc6N)C7)ccn5)C4)CC3)CC2)no1", "BRM (Homo sapiens, UniProt P51531)", "DC50", "≥ 30 nM"),
]

For every item in the list below, what is its measured DC50?
1. Cc1ncsc1-c1ccc([C@H](C)NC(=O)[C@@H]2C[C@@H](O)CN2C(=O)[C@@H](c2cc(N3CCC(CN4CCC(O[C@H]5C[C@H](N6CCC(O)(CN7C8CCC7CN(c7cc(-c9ccccc9O)nnc7N)C8)CC6)C5)CC4)CC3)no2)C(C)C)cc1
2. Cc1ncsc1-c1ccc([C@H](C)NC(=O)[C@@H]2C[C@@H](O)CN2C(=O)[C@@H](c2cc(N3CCC(CN4CCC5(CC4)CC(N4CCO[C@@H](CN6C7CCC6CN(c6cc(-c8ccccc8O)nnc6N)C7)C4)C5)CC3)no2)C(C)C)cc1
3. CC(C)[C@@H](C(=O)N1C[C@H](O)C[C@H]1C(=O)N[C@@H](C)c1ccc(-c2c(F)cnn2C)cc1)c1cc(N2CCC(CN3CCC(O[C@H]4C[C@H](Oc5cc(N6CCN(c7cc(-c8ccccc8O)nnc7N)CC6)ccn5)C4)CC3)CC2)no1
4. Cc1ncsc1-c1ccc([C@H](C)NC(=O)[C@@H]2C[C@@H](O)CN2C(=O)[C@@H](c2cc(N3CCC(CN4CCC5(CC4)CC(N4CCO[C@H](C(C)(C)N6C7CCC6CN(c6cc(-c8ccccc8O)nnc6N)C7)C4)C5)CC3)no2)C(C)C)cc1
5. Cc1ncsc1-c1ccc([C@H](C)NC(=O)[C@@H]2C[C@@H](O)CN2C(=O)[C@@H](c2cc(N3CCC(CN4CCC5(CC4)CC(N4CCC[C@@](O)(CN6C7CCC6CN(c6cc(-c8ccccc8O)nnc6N)C7)C4)C5)CC3)no2)C(C)C)cc1
6. CC(C)[C@@H](C(=O)N1C[C@H](O)C[C@H]1C(=O)N[C@@H](C)c1ccc(C#N)cc1)c1cc(N2CCC(CN3CC[C@@H](Oc4cc(N5C6CCC5CN(c5cc(-c7ccccc7O)nnc5N)C6)ccn4)C(F)(F)C3)CC2)no1

Outgoing:
1: < 2.5 nM; 2: < 2.5 nM; 3: < 2.5 nM; 4: 2.5 to 10 nM; 5: < 2.5 nM; 6: 2.5 to 10 nM

Please give DC50 for each item listed below.
1. Cc1ncsc1-c1ccc([C@H](C)NC(=O)[C@@H]2C[C@@H](O)CN2C(=O)[C@@H](c2cc(N3CCC(CN4CCC5(CC4)CC(N4CCN(CC6(O)CCN(c7cc(-c8ccccc8O)nnc7N)CC6)CC4)C5)CC3)no2)C(C)C)cc1
2. CC(C)[C@@H](C(=O)N1C[C@H](O)C[C@H]1C(=O)N[C@@H](C)c1ccc(-c2ccnn2C)cc1)c1cc(N2CCC(CN3CCC(O[C@H]4C[C@H](OC(=O)N5CCN(c6cc(-c7ccccc7O)nnc6N)CC5)C4)CC3)CC2)no1

Outgoing:
1. < 2.5 nM
2. ≥ 30 nM

Could you report DC50 for every entry in the following list?
1. Cc1ncsc1-c1ccc([C@H](C)NC(=O)[C@@H]2C[C@@H](O)CN2C(=O)[C@@H](c2cc(N3CCC(CN4CCC(O[C@H]5C[C@H](C(=O)N6CCC(N7C8CCC7CN(c7cc(-c9ccccc9O)nnc7N)C8)CC6)C5)CC4)CC3)no2)C(C)C)cc1
2. Cc1ncsc1-c1ccc([C@H](C)NC(=O)[C@@H]2C[C@@H](O)CN2C(=O)[C@@H](c2cc(N3C4CCC3CC(CN3CCC(O[C@H]5C[C@H](Oc6cc(N7C8CCC7CN(c7cc(-c9ccccc9O)nnc7N)C8)ccn6)C5)CC3)C4)no2)C(C)C)cc1 (stereo partly shown)

Outgoing:
2.5 to 10 nM
< 2.5 nM
